target: human TRPM8 receptor (Homo sapiens, UniProt Q7Z2W7); construct: expressed in transfected cells; host or cells: HEK293, stably transfected, tetracycline-inducible expression; assay: Assay on TRPM8 modulators: Ca2+-sensitive dye (Fluo-4) fluorescence in HEK293-TRPM8 test cells; assay type: cell-based; design: concentration or dose not given beside the values; details: HEK293 cells recombinantly expressing human TRPM8
Sequence (Q7Z2W7 whole entry): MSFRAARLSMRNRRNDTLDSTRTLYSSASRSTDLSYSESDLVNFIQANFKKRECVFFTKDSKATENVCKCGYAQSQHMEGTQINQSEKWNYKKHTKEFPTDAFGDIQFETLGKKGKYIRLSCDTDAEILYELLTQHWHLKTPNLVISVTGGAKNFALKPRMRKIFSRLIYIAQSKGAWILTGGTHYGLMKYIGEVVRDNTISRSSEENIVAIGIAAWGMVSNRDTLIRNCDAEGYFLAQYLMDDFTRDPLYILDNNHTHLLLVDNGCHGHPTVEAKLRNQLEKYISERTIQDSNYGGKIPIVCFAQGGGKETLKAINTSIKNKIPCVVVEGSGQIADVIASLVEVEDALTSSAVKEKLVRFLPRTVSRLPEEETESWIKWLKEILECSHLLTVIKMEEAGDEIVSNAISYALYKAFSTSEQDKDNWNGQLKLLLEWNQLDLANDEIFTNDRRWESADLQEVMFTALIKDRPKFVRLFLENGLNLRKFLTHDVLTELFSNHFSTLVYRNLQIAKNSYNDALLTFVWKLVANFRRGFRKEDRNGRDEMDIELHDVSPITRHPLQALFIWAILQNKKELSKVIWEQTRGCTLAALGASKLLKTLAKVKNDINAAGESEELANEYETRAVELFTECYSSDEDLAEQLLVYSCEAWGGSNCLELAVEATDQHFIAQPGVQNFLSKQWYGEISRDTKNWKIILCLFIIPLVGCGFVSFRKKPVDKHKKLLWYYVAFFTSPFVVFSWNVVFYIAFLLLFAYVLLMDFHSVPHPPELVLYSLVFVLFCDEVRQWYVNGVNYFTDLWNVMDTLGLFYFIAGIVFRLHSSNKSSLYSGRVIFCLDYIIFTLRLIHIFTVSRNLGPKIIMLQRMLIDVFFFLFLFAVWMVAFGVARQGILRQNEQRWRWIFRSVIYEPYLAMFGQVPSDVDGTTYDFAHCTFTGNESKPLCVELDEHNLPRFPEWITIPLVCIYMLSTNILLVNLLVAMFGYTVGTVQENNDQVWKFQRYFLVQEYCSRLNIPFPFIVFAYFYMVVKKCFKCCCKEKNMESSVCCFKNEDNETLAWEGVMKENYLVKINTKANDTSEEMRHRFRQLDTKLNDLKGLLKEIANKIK
Measured Parameter: relative TRPM8 activation (%)

• CNC(=O)CSc1ncco1 [Compound A-59] = 1
• CC(CO)NC(=O)CSc1nc(-c2ccccc2)c(-c2ccccc2)o1 (stereo not shown) [Compound A-26] = 51
• CC(Sc1nc(-c2ccccc2)c(-c2ccccc2)o1)C(N)=O (stereo not shown) [Compound A-20] = 73
• CC(=O)OCCSc1nc(-c2ccccc2)c(-c2ccccc2)o1 [Compound A-57] = 1
• O=C(CSc1nc(-c2ccccc2)c(-c2ccccc2)o1)NC1CCCC1 [Compound A-38] = 6
• CNC(=O)C(C)Sc1nncc(-c2ccccc2)n1 (stereo not shown) [Compound B-34] = 25

P = CSc1nnc(-c2ccccc2)c(-c2ccccc2)n1 [Compound B-64]
Q = CN(C)C(=O)CSc1cnc(-c2ccccc2)c(-c2ccccc2)n1 [Compound B-23]
Q: Please state the entry with greater relative TRPM8 activation among P and Q . Answer = label.
Ans: Q
(Q: 73%, P: −3%)

====

biological target: human TRPM8 receptor (Homo sapiens); construct: expressed in transfected cells; host or cells: HEK293, stably transfected, tetracycline-inducible expression; experiment: Assay on TRPM8 modulators: Ca2+-sensitive dye (Fluo-4) fluorescence in HEK293-TRPM8 test cells; type: cell-based; details: Table 5; HEK293-TRPM8 cells; read-out: TRPM8 EC50
Measured Parameter: EC50 (nM)

Recorded results for 2 compounds are shown here.
* CCC(Sc1nnc(-c2ccccc2)c(-c2ccccc2)n1)C(=O)N(C)C (centres unmarked) [Compound B-05] | 100
* CCC(Sc1nnc(-c2ccccc2)c(-c2ccccc2)n1)C(=O)NC (centres unmarked) [Compound B-03] | 70

1 = CC(Sc1nnc(-c2ccccc2)c(-c2ccccc2)n1)C(=O)NC1CC1 (centres unmarked) [Compound B-01]
2 = CNC(=O)C(C)Sc1nnc(-c2ccccc2)c(-c2ccccc2)n1 (centres unmarked) [Compound B-11]
3 = CNC(=O)C(C)Sc1cnc(-c2ccccc2)c(-c2ccccc2)n1 (centres unmarked) [Compound B-02]
Q: Sort entries by EC50 from minimum to maximum value. Answer format: list of labels, ordered as asked.
Ans: 1, 3, 2

====

target: human TRPM8 receptor (Homo sapiens, UniProt Q7Z2W7); construct: expressed in transfected cells; host or cells: HEK293, stably transfected, tetracycline-inducible expression; test: Assay on TRPM8 modulators: Ca2+-sensitive dye (Fluo-4) fluorescence in HEK293-TRPM8 test cells; assay type: cell-based; parameters: concentration or dose not given beside the values; conditions: HEK293 cells recombinantly expressing human TRPM8
Measured Parameter: relative TRPM8 activation (%)

- CC(C)C(=O)CSc1nc(-c2ccccc2)c(-c2ccccc2)o1: 1

I = CNC(=O)C(C)Sc1nc(-c2ccc(C)cc2)c(-c2ccc(C)cc2)o1 (centres unmarked)
II = CNC(=O)C(C)Sc1ncco1 (centres unmarked)
III = O=C(COc1nnc(-c2ccccc2)c(-c2ccccc2)n1)NC1CC1
IV = CCSc1nnc(-c2ccccc2)c(-c2ccccc2)n1
Q: Order the 4 compounds from highest to lowest relative TRPM8 activation. Output spec: labels arranged per the requested ranking.
Ans: I, IV, III, II
(I: 55%, IV: 13%, III: 2%, II: 1%)

Numbers sourced from patent US20250163006A1.
